- System: Vero E6 infected with SARS-CoV-2
- TEST: inhibition of SARS-CoV-2 cytopathic effect; higher = more antiviral protection, active = above 15
- STUDY CONDITIONS: 8.33 nM; 48 h
Property: inhibition of SARS-CoV-2 cytopathic effect; scope: individual molecules
Give a bare numeral; the unit % is implied.

N#Cc1ccc(N(Cc2ccc(Br)cc2)n2cnnc2)cc1; -0.63
CN1CCOC(c2ccccc2)c2ccccc2C1 (stereo unspecified) [nefopam]; 0.54
Cc1oc2ccccc2c1CNC(=O)NCc1cccs1; 1.63
O=C(O)/C=C/c1ccc(Cn2ccnc2)cc1 [ozagrel]; 3.28
N=C(N)c1ccc(OCCCCCOc2ccc(C(=N)N)cc2)cc1 [pentamidine]; -3.29

inhibition of SARS-CoV-2 cytopathic effect in this record for CCCCCCCC/C=C\CCCCCCCC(N)=O [oleamide] : -1.34

Reported inhibition of SARS-CoV-2 cytopathic effect of CCc1cccc2c3c([nH]c12)C(CC)(CC(=O)O)OCC3 (stereo unspecified) [etodolac] : -2.14

Per the record, CC(=O)C1=C(O)[C@@H]2[C@H]3c4c[nH]c5cccc(c45)C[C@H]3C(C)(C)N2C1=O [cyclopiazonic-acid] has inhibition of SARS-CoV-2 cytopathic effect of 0.86

The value of inhibition of SARS-CoV-2 cytopathic effect measured for the molecule OCC(CO)N[C@H]1C[C@](O)(CO)[C@@H](O)[C@H](O)[C@H]1O [voglibose] turned out to be -8.33

Form: molecule = CO/N=C1\CN(c2nc3c(cc2F)c(=O)c(C(=O)O)cn3C2CC2)CC1CN (stereo unspecified) [gemifloxacin] ; inhibition of SARS-CoV-2 cytopathic effect = -3.09

Reported inhibition of SARS-CoV-2 cytopathic effect for C=C1CC[C@@]2(O)[C@H]3Cc4ccc(O)c5c4[C@@]2(CCN3CC2CC2)[C@H]1O5 [nalmefene] was 1.64

The value of inhibition of SARS-CoV-2 cytopathic effect measured for the molecule "CC(=O)N(OCc1ccccc1)[C@@H]1c2cc(C#N)ccc2OC(C)(C)[C@H]1O" turned out to be -2.98

Reported inhibition of SARS-CoV-2 cytopathic effect of CCN(CC)CCNC(=O)c1ccc(N)cc1 [procainamide] : 0.24
